Item-by-item account of Postemergence herbicidal rating, SETVI
system: SETVI (Setaria viridis); experiment: Postemergence herbicidal evaluation; assay type: in vivo, (L.) Beau; settings: rate 0.0620 kg/ha
Enter a number only.

Solved entries (count: 5):
compound: Cc1cscc1-c1nsc2ccc(-n3c(=O)cc(C(F)(F)F)n(C)c3=O)cc12
Postemergence herbicidal rating, SETVI: 9.0

compound: Cc1cccnc1-c1nsc2cc(F)c(N3C(=O)C4=C(CCCC4)C3=O)cc12
Postemergence herbicidal rating, SETVI: 4.0

compound: Cc1ccc(-c2nsc3ccc(N4C(=O)C5=C(CCCC5)C4=O)cc23)s1
Postemergence herbicidal rating, SETVI: 2.0

compound: Cn1c(C(F)(F)F)cc(=O)n(-c2ccc3snc(C4OCCCO4)c3c2)c1=O
Postemergence herbicidal rating, SETVI: 8.5

compound: CC(=O)N1CCSC1c1nsc2ccc(-n3c(=O)cc(C(F)(F)F)n(C)c3=O)cc12 (stereo not shown)
Postemergence herbicidal rating, SETVI: 5.0

Query :: GET /values?readout=Postemergence herbicidal rating, SETVI&item= Cn1c(C(F)(F)F)cc(=O)n(-c2ccc3snc(C4SCCS4)c3c2)c1=O
Result :: 3.0

Query :: How about C[C@@H]1O[C@@H]1c1nsc2ccc(-n3c(=O)cc(C(F)(F)F)n(C)c3=O)cc12 ?
Result :: 7.0

Provenance of the data: patent US6706663B2
